Molecular target: CYP2D6 (Homo sapiens)
quantity: IC50 (µM)
Give just the numeric value; µM need not be written.

Query: Entry CC(CCC1(O)OC2CC3C4CCC5CC(OC6OC(CO)C(O)C(O)C6OC6OC(CO)C(O)C(O)C6O)CCC5(C)C4CCC3(C)C2C1C)COC1OC(CO)C(O)C(O)C1O (stereo not shown) [anemarsaponin BII, Anemarsaponin BII] : reported IC50 = ?
Response: 16.3

====

Target: CYP2D6 (Homo sapiens, UniProt P10635)
Sequence (P10635 whole entry): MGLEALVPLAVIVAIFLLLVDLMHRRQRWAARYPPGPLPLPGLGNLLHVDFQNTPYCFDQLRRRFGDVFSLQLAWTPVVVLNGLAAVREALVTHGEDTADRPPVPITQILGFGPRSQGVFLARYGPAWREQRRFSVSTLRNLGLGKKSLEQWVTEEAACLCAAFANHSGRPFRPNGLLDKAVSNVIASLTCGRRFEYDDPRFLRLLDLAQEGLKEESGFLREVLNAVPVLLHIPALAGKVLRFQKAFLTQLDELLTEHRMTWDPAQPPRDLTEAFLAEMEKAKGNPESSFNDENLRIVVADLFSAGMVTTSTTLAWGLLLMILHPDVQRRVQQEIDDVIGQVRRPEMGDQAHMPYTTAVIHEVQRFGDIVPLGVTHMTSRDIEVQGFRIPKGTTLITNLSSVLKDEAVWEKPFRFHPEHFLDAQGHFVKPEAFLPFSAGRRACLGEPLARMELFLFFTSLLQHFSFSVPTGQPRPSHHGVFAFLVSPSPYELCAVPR
quantity: pKi
Bear in mind: pKi is minus log10 of a mol/L concentration; give just that figure.

Query: API: value(readout= pKi, system= CYP2D6 (Homo sapiens, UniProt P10635), query= CC(CCC1(O)OC2CC3C4CCC5CC(OC6OC(CO)C(O)C(O)C6OC6OC(CO)C(O)C(O)C6O)CCC5(C)C4CCC3(C)C2C1C)COC1OC(CO)C(O)C(O)C1O (stereo not shown) )
Response: 5.08

====

Target: CYP3A4 (Homo sapiens, UniProt P08684)
Construct: marker reactions with specific substrates in human liver microsomes (HLMs); from tissue; host or cells: pooled human liver microsomes
Sequence (P08684 whole entry): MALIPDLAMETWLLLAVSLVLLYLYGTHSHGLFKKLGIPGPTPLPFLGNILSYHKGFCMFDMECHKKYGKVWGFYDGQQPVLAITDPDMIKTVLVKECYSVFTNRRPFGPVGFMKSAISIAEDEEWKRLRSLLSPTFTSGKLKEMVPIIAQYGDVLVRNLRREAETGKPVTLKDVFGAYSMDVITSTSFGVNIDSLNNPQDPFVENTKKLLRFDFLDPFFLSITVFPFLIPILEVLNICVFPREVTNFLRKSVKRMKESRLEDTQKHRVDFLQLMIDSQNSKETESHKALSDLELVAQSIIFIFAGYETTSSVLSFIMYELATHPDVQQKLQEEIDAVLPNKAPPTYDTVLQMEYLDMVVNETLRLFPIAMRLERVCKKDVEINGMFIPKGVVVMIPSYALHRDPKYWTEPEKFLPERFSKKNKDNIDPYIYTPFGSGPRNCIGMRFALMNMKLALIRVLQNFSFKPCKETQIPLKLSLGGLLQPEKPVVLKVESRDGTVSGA
Test: Time-dependent inhibition of CYP3A4 in HLMs
Format: in vitro ADME
Settings: human, human liver microsomes, NADPH, 0–50 μM anemarsaponin BII, 0-30 min, non-linear regression
quantity: kinact (s⁻¹)
Give just the numeric value; s⁻¹ need not be written.

Query: API: value(readout= kinact, system= CYP3A4 (Homo sapiens, UniProt P08684), query= CC(CCC1(O)OC2CC3C4CCC5CC(OC6OC(CO)C(O)C(O)C6OC6OC(CO)C(O)C(O)C6O)CCC5(C)C4CCC3(C)C2C1C)COC1OC(CO)C(O)C(O)C1O (stereo not shown) [anemarsaponin BII, Anemarsaponin BII] )
Response: 0.000883

====

Target: UniProt P05181
Sequence (P05181 whole entry): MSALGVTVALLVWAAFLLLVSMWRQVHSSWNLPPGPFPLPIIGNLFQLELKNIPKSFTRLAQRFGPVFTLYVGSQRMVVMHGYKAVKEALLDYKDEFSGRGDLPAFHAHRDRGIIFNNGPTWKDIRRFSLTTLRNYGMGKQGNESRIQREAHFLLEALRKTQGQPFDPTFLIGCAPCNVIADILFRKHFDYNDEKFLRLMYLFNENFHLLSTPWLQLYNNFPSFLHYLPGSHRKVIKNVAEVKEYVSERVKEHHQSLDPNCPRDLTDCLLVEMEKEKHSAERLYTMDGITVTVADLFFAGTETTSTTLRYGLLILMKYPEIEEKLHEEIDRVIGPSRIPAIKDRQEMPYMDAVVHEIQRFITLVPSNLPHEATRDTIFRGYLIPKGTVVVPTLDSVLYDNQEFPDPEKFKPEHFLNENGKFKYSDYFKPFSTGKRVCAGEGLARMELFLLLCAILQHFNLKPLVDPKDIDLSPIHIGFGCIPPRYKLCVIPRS
quantity: pKi
Bear in mind: pKi is minus log10 of a mol/L concentration; give just that figure.

Query: Entry CC(CCC1(O)OC2CC3C4CCC5CC(OC6OC(CO)C(O)C(O)C6OC6OC(CO)C(O)C(O)C6O)CCC5(C)C4CCC3(C)C2C1C)COC1OC(CO)C(O)C(O)C1O (stereo not shown) : reported pKi = ?
Response: 5.01

====

Biological target: CYP3A4 (Homo sapiens, UniProt P08684)
quantity: Ki (µM)
Give just the numeric value; µM need not be written.

Query: Entry CC(CCC1(O)OC2CC3C4CCC5CC(OC6OC(CO)C(O)C(O)C6OC6OC(CO)C(O)C(O)C6O)CCC5(C)C4CCC3(C)C2C1C)COC1OC(CO)C(O)C(O)C1O (stereo not shown) [anemarsaponin BII, Anemarsaponin BII] : reported Ki = ?
Response: 6.72

====

Biological target: CYP3A4 (Homo sapiens, UniProt P08684)
Construct: marker reactions with specific substrates in human liver microsomes (HLMs); from tissue; host or cells: pooled human liver microsomes
Experiment: CYP3A4 inhibition in pooled human liver microsomes (testosterone 6β-hydroxylation)
Format: in vitro ADME
Details: HLMs, 0-100 μM anemarsaponin BII
quantity: IC50 (µM)
Give just the numeric value; µM need not be written.

Query: API: value(readout= IC50, system= CYP3A4 (Homo sapiens, UniProt P08684), query= CC(CCC1(O)OC2CC3C4CCC5CC(OC6OC(CO)C(O)C(O)C6OC6OC(CO)C(O)C(O)C6O)CCC5(C)C4CCC3(C)C2C1C)COC1OC(CO)C(O)C(O)C1O (stereo not shown) [anemarsaponin BII, Anemarsaponin BII] )
Response: 13.7
